Give Kd for every item shown.
biological target: RSV prefusion F (preF), DS-Cav1 (Respiratory syncytial virus, UniProt P03420 26-513); assay: BLI, IgG on anti-human IgG sensor, 100 nM antigen
State the result as a value with its unit after it.

Use the examples below as a reference point.
# binder, Kd
measured = [
    ("ADI-41807 (antibody, V domains shown) VH: EVQLLESGPALVKPTQTLTLTCTFSGFSLTTTRMSVSWIRQPPGKALEWLARIDWDDDKYYSTSLKTRLTISKDTSKNQVVLTMTNMDPVDTATYFCARVNVYAANGYYSYYLDYWGQGTLVTVSS VL: DIVMTQTPSSLSASVGDRVTITCRTSQSSSRYLNWYQKEPGKAPRLLIYLASALRSGVPSRFSGSGSGTDFTLTISSLQSEDFATYYCQQTYSIPWTFGQGTKVEIK", "1.5 nM"),
    ("ADI-41662 (antibody, V domains shown) VH: QVQLVQSGAEVKKAGESLKISCKGPRHSFTSYWIGWVRQMPGKGLEWMASIYPGDSDSRYSPSFEGQVTISADKSIDTAFLQWSSLKASDTAMYFCARYVGAVPGGNWYFDLWGRGTLVTVSS VL: SYELIQLPSVSVSPGQTARITCSGDALPKKYAYWYQQKSGQAPVLVIYDDNKRPSGIPARFSGSSSGTMATLTISGAQVEDEGDYYCYSTDSTGDHRGVFGGGTKLTVL", "5.24 nM"),
    ("ADI-41579 (antibody, V domains shown) VH: QVQLVESGAEARKPGSSVKVSCKLSGGTFSTDPISWVRQAPGQGLEWMGRIIPLLGIANYAQKFQGRVTIIADKSTSTVYMELRNLRFEDTAVYFCARRGDGYYGMDVWGQGTTVTVSS VL: QSVLTQPASVSGSPGQSITISCTGTSNDIGGYDYVSWYQQHPGKAPKLMIYDVHNRPSGVSNRFSGSKSGNTASLTISGLQAEDEADYYCSSFSDSGNLYVFGTGTKLTVL", "0.471 nM"),
]

Inquiry: What does the data say about its Kd? Entry: ADI-41743 (antibody, V domains shown, also called Ab 898; Antibody Number 898) VH: EVQLVESGSGLVKPSQTLSLTCSVSGGSISSGGYSWSWIRQPPGKGLEWIGFIYNTGSTYSNPSLKSRLTLSVDRSNNRFSLKLNSVTAADTGVYFCARSGNVRQCDATGHCSTNYYFEYWGLGTLVTVSS VL: EIVMTQSPATLSVSPGERATLSCRASQSVSSNLAWYQQKPGQAPRLLIYGASTRATGIPARFSGSGSGTEFTLTISSLQSEDFAVYYCQQHDDWPPLTFGGGTKVEIK
Reply text: 5.45 nM
